Molecular target: mouse NMUR2 (mouse, UniProt Q8BZ39 1-395)
Sequence (Q8BZ39 whole entry): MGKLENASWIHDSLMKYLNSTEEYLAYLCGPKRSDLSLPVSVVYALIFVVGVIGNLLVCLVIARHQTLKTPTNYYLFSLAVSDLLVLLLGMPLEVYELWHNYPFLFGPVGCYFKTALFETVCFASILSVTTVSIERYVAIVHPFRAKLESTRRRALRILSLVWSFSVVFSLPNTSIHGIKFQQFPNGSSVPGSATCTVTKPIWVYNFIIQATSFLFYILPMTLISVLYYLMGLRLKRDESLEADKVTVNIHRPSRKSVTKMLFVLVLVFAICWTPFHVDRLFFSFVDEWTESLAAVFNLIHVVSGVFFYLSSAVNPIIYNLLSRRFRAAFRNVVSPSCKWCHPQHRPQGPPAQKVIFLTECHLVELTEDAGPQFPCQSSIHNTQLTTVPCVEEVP
Test: cell-based or functional assay
Starred links: 1 amine or outer side, 2 acyl side, 3 side chain; linkers in the order of their positions; H or OH if unused. Non-standard residues stand in square brackets, D forms with d. No end group written: not given here. *: point of attachment. Ttds = 1-amino-4,7,10-trioxa-13-tridecanamine succinimic acid spacer, O=C(CCC(=O)[*:2])NCCCOCCOCCOCCCN[*:1]; (PEG)2 40 kDa = branched PEG of 40 kDa linked via the Cys side-chain thiol (code C2 = Cys(PEG)2 40 kDa); Succinimide(1-Et,3-yl) = CCN1C(=O)CC(*)C1=O
PROPERTY NAME: % Activity (FLIPR) (%)
Answers are plain numbers, in %.

Would you please look over these solved cases?
Ac-C(Succinimide(1-Et,3-yl))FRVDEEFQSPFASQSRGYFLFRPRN-NH2 [NMU8] :: 100
Ac-C((PEG)2 40 kDa)ASQSRGYFLFRPRN-NH2 [NMU18] :: 100
FRVDEEFQSPFASQSRPYFLFRPRN-NH2 [NMU4] :: 100
Ac-C(PEG 20 kDa)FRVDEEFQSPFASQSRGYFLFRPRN-NH2 [NMU21] :: 100
Ac-C((PEG)2 40 kDa)[Ttds]FLFRPRN-NH2 [NMU16] :: 97.4

stdin: Bench note: what % Activity (FLIPR) did Ac-C(Succinimide(1-Et,3-yl))GYFLFRPRN-NH2 (SMILES CCN1C(=O)CC(SC[C@H](NC(C)=O)C(=O)NCC(=O)N[C@@H](Cc2ccc(O)cc2)C(=O)N[C@@H](Cc2ccccc2)C(=O)N[C@@H](CC(C)C)C(=O)N[C@@H](Cc2ccccc2)C(=O)N[C@@H](CCCNC(=N)N)C(=O)N2CCC[C@H]2C(=O)N[C@@H](CCCNC(=N)N)C(=O)N[C@@H](CC(N)=O)C(N)=O)C1=O) [NMU6] show?
stdout: 100

Sourced from patent US20070244048A1
